System: NCI-H1341 complex spheroids, percent test/control
Assay: Anticancer human tumor NCI-H1341 cell line growth inhibition [AhR];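 further: spheroids exposed to agents for seven days before readout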
Conditions: second compound 1 µM; first compound 3 µM; hits give low values
// reported viability, T/C per item
Express the result in % but write the number alone.

Field: example entries. Status: answers known.
{"molecule": "O=C(C=Cn1cnc(-c2cc(C(F)(F)F)cc(C(F)(F)F)c2)n1)NNc1cnccn1 + Cc1cncc(-c2nc(NCCc3c[nH]c4ccccc34)c3ncn(C(C)C)c3n2)c1", "test target": "NCI-H1341 complex spheroids, percent test/control", "quantity measured": "viability, T/C", "recorded result": 4.92}
{"molecule": "CCN(c1cc(-c2ccc(CN3CCOCC3)cc2)cc(C(=O)NCc2c(C)cc(C)[nH]c2=O)c1C)C1CCOCC1 + Cc1ccccc1N=Nc1ccc(NC(=O)c2ccnn2C)c(C)c1", "test target": "NCI-H1341 complex spheroids, percent test/control", "quantity measured": "viability, T/C", "recorded result": 100}
{"molecule": "CCN(c1cc(-c2ccc(CN3CCOCC3)cc2)cc(C(=O)NCc2c(C)cc(C)[nH]c2=O)c1C)C1CCOCC1 + Cc1cncc(-c2nc(NCCc3c[nH]c4ccccc34)c3ncn(C(C)C)c3n2)c1", "test target": "NCI-H1341 complex spheroids, percent test/control", "quantity measured": "viability, T/C", "recorded result": 57.5}
{"molecule": "CCN(c1cc(-c2ccc(CN3CCOCC3)cc2)cc(C(=O)NCc2c(C)cc(C)[nH]c2=O)c1C)C1CCOCC1 + CC(CO)NC(=O)c1cc(-c2ccc(Cl)cc2)nn(-c2cnn(C)c2)c1=O", "test target": "NCI-H1341 complex spheroids, percent test/control", "quantity measured": "viability, T/C", "recorded result": 62}
{"molecule": "O=C(C=Cn1cnc(-c2cc(C(F)(F)F)cc(C(F)(F)F)c2)n1)NNc1cnccn1 + Cc1ccccc1N=Nc1ccc(NC(=O)c2ccnn2C)c(C)c1", "test target": "NCI-H1341 complex spheroids, percent test/control", "quantity measured": "viability, T/C", "recorded result": 8.16}

## Input Identify measured viability, T/C associated with O=C(C=Cn1cnc(-c2cc(C(F)(F)F)cc(C(F)(F)F)c2)n1)NNc1cnccn1 + CC(CO)NC(=O)c1cc(-c2ccc(Cl)cc2)nn(-c2cnn(C)c2)c1=O
## Output 3.2

---

Test system: NCI-H1341 complex spheroids, percent test/control
Assay: Anticancer human tumor NCI-H1341 cell line growth inhibition [AhR];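 further: spheroids exposed to agents for seven days before readout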
Settings: second compound 0.316 µM; first compound 0.316 µM; hits give low values
quantity measured: viability, T/C (%)
Give the quantity in %, number only.

// known answers, use as guide
{"compound": "COc1cccc2c1C(=O)c1c(O)c3c(c(O)c1C2=O)CC(O)(C(=O)CO)CC3OC1CC(N)C(O)C(C)O1 (configuration not stated) + CC(CO)NC(=O)c1cc(-c2ccc(Cl)cc2)nn(-c2cnn(C)c2)c1=O", "measure unit": "%", "viability, T/C": 28.4}
{"compound": "CC1COCCN1c1cc(-c2ccnn2C)c2ccnc(-c3ccn[nH]3)c2n1 (configuration not stated) + Cc1ccccc1N=Nc1ccc(NC(=O)c2ccnn2C)c(C)c1", "measure unit": "%", "viability, T/C": 34.8}
{"compound": "CC1(C)CCC(CN2CCN(c3ccc(C(=O)NS(=O)(=O)c4ccc(NCC5CCOCC5)c([N+](=O)[O-])c4)c(Oc4cnc5[nH]ccc5c4)c3)CC2)=C(c2ccc(Cl)cc2)C1 + Cc1ccccc1N=Nc1ccc(NC(=O)c2ccnn2C)c(C)c1", "measure unit": "%", "viability, T/C": 94.2}
{"compound": "COc1cc(C2c3cc4c(cc3C(OC3OC5COC(C)OC5C(O)C3O)C3COC(=O)C23)OCO4)cc(OC)c1O (configuration not stated) + CC(CO)NC(=O)c1cc(-c2ccc(Cl)cc2)nn(-c2cnn(C)c2)c1=O", "measure unit": "%", "viability, T/C": 55.5}
{"compound": "CC1COCCN1c1cc(-c2ccnn2C)c2ccnc(-c3ccn[nH]3)c2n1 (configuration not stated) + CC(CO)NC(=O)c1cc(-c2ccc(Cl)cc2)nn(-c2cnn(C)c2)c1=O", "measure unit": "%", "viability, T/C": 23.8}

## Input Identify viability, T/C associated with the compound Nc1ccn(C2OC(CO)C(O)C2(F)F)c(=O)n1 (configuration not stated) + Cc1ccccc1N=Nc1ccc(NC(=O)c2ccnn2C)c(C)c1
## Output 34.7

## Input Look up and state reported viability, T/C for Nc1ncn(C2CC(O)C(CO)O2)c(=O)n1 (configuration not stated) + Cc1cncc(-c2nc(NCCc3c[nH]c4ccccc34)c3ncn(C(C)C)c3n2)c1
## Output 52.1

---

Tested on: NCI-H1341 complex spheroids, percent test/control
Experiment: Anticancer human tumor NCI-H1341 cell line growth inhibition [AhR];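 further: spheroids exposed to agents for seven days before readout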
Details: second compound 1 µM; first compound 0.03 µM; hits give low values
Please respond with Y when measured viability, T/C is strictly beneath 80%, and with N in all other cases.

Answered cases to consult:
{"compound": "CCN(c1cc(-c2ccc(CN3CCOCC3)cc2)cc(C(=O)NCc2c(C)cc(C)[nH]c2=O)c1C)C1CCOCC1 + Cc1ccccc1N=Nc1ccc(NC(=O)c2ccnn2C)c(C)c1", "class label": "N"}
{"compound": "O=C(C=Cn1cnc(-c2cc(C(F)(F)F)cc(C(F)(F)F)c2)n1)NNc1cnccn1 + CC(CO)NC(=O)c1cc(-c2ccc(Cl)cc2)nn(-c2cnn(C)c2)c1=O", "class label": "Y"}
{"compound": "CCc1c2c(nc3ccc(O)cc13)-c1cc3c(c(=O)n1C2)COC(=O)[C@]3(O)CC + Cc1cncc(-c2nc(NCCc3c[nH]c4ccccc34)c3ncn(C(C)C)c3n2)c1", "class label": "Y"}

## Input State whether 80% exceeds viability, T/C recorded for CCc1c2c(nc3ccc(O)cc13)-c1cc3c(c(=O)n1C2)COC(=O)[C@]3(O)CC + CC(CO)NC(=O)c1cc(-c2ccc(Cl)cc2)nn(-c2cnn(C)c2)c1=O .
## Output Y

## Input Please let me know if CC(C)CC(NC(=O)C(Cc1ccccc1)NC(=O)c1cnccn1)B(O)O (stereo unspecified) + Cc1cncc(-c2nc(NCCc3c[nH]c4ccccc34)c3ncn(C(C)C)c3n2)c1 shows viability, T/C below 80%.
## Output Y

---

Test system: NCI-H1341 complex spheroids, percent test/control
Experiment: Anticancer human tumor NCI-H1341 cell line growth inhibition [AhR];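 further: spheroids exposed to agents for seven days before readout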
Conditions: second compound 1 µM; first compound 0.03 µM; hits give low values
// NB: equality with 40% counts as N; only viability, T/C strictly below is Y

## Input Does the reported viability, T/C of CCN(c1cc(-c2ccc(CN3CCOCC3)cc2)cc(C(=O)NCc2c(C)cc(C)[nH]c2=O)c1C)C1CCOCC1 + CC(CO)NC(=O)c1cc(-c2ccc(Cl)cc2)nn(-c2cnn(C)c2)c1=O stay below 40%?
## Output N

## Input # TODO verify viability, T/C < 40% strictly for this compound: Nc1ncn(C2CC(O)C(CO)S2)c(=O)n1 (stereo unspecified) + Cc1cncc(-c2nc(NCCc3c[nH]c4ccccc34)c3ncn(C(C)C)c3n2)c1
## Output N

## Input Lab note: confirm whether the reported viability, T/C for this compound is below 40%, equality not counting. compound: CCc1c2c(nc3ccc(O)cc13)-c1cc3c(c(=O)n1C2)COC(=O)[C@]3(O)CC + Cc1ccccc1N=Nc1ccc(NC(=O)c2ccnn2C)c(C)c1
## Output N

## Input Would you kindly verify if viability, T/C of O=C(C=Cn1cnc(-c2cc(C(F)(F)F)cc(C(F)(F)F)c2)n1)NNc1cnccn1 + Cc1cncc(-c2nc(NCCc3c[nH]c4ccccc34)c3ncn(C(C)C)c3n2)c1 is strictly less than 40%?
## Output N

## Input Does this compound meet the criterion viability, T/C < 40%? Nc1ncn(C2CC(O)C(CO)S2)c(=O)n1 (stereo unspecified) + Cc1ccccc1N=Nc1ccc(NC(=O)c2ccnn2C)c(C)c1
## Output N

## Input Hello, is viability, T/C of the following compound strictly smaller than 40%? CC(C)CC(NC(=O)C(Cc1ccccc1)NC(=O)c1cnccn1)B(O)O (stereo unspecified) + Cc1ccccc1N=Nc1ccc(NC(=O)c2ccnn2C)c(C)c1
## Output Y

---

Tested on: NCI-H1341 complex spheroids, percent test/control
Assay: Anticancer human tumor NCI-H1341 cell line growth inhibition [AhR];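 further: spheroids exposed to agents for seven days before readout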
Details: second compound 3.16 µM; first compound 0.03 µM; hits give low values
Entries and their viability, T/C
All answers are understood in %, so give the number only.

Illustrative cases are given below, each with its answer.
{"compound": "CCc1c2c(nc3ccc(O)cc13)-c1cc3c(c(=O)n1C2)COC(=O)[C@]3(O)CC + CC(CO)NC(=O)c1cc(-c2ccc(Cl)cc2)nn(-c2cnn(C)c2)c1=O", "viability, T/C (%)": 37.4}
{"compound": "Nc1ncn(C2CC(O)C(CO)S2)c(=O)n1 (stereo not given) + Cc1cncc(-c2nc(NCCc3c[nH]c4ccccc34)c3ncn(C(C)C)c3n2)c1", "viability, T/C (%)": 84.7}
{"compound": "CCN(c1cc(-c2ccc(CN3CCOCC3)cc2)cc(C(=O)NCc2c(C)cc(C)[nH]c2=O)c1C)C1CCOCC1 + Cc1cncc(-c2nc(NCCc3c[nH]c4ccccc34)c3ncn(C(C)C)c3n2)c1", "viability, T/C (%)": 77.3}
{"compound": "Nc1ncn(C2CC(O)C(CO)S2)c(=O)n1 (stereo not given) + Cc1ccccc1N=Nc1ccc(NC(=O)c2ccnn2C)c(C)c1", "viability, T/C (%)": 69.6}
{"compound": "CCN(c1cc(-c2ccc(CN3CCOCC3)cc2)cc(C(=O)NCc2c(C)cc(C)[nH]c2=O)c1C)C1CCOCC1 + Cc1ccccc1N=Nc1ccc(NC(=O)c2ccnn2C)c(C)c1", "viability, T/C (%)": 75.1}

## Input Please supply the value of reported viability, T/C for the item CCN(c1cc(-c2ccc(CN3CCOCC3)cc2)cc(C(=O)NCc2c(C)cc(C)[nH]c2=O)c1C)C1CCOCC1 + CC(CO)NC(=O)c1cc(-c2ccc(Cl)cc2)nn(-c2cnn(C)c2)c1=O
## Output 82.5

## Input Give viability, T/C for O=C(C=Cn1cnc(-c2cc(C(F)(F)F)cc(C(F)(F)F)c2)n1)NNc1cnccn1 + CC(CO)NC(=O)c1cc(-c2ccc(Cl)cc2)nn(-c2cnn(C)c2)c1=O
## Output 56.6
